# Target: CYP2C19 (Homo sapiens, UniProt P33261)
# Sequence (P33261 whole entry): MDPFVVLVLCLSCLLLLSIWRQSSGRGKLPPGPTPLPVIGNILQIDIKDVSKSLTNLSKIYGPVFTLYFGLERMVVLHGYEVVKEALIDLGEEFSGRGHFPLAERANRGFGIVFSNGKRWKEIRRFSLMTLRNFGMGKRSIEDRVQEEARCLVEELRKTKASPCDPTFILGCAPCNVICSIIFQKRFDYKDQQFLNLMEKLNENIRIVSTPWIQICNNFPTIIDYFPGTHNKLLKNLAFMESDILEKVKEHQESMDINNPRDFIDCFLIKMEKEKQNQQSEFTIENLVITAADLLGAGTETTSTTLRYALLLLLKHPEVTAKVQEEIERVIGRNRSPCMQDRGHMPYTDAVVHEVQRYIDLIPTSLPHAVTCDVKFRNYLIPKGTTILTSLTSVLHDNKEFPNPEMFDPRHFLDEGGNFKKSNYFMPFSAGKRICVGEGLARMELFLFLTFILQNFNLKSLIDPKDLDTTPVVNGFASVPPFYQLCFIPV
# Assay summary: CYP2C19 inhibition (fluorescent substrate CEC)
# Type: in vitro ADME
# Reported conditions: read-out: Cyp IC50 (μM) 2C19
Reported IC50 values are given for each entry in this list.

INPUT: Which IC50 reading was recorded for the molecule Cc1ccc(-c2cnc3[nH]cc(C(=O)c4c(F)ccc(NS(=O)(=O)c5cc(F)ccc5F)c4F)c3c2)cn1 [P-1408] ?
OUTPUT: > 10 µM

###

Reported IC50 values are given for each entry in this list.
# Target: CYP3A4(BFC) (Homo sapiens, UniProt P08684)
# Sequence (P08684 whole entry): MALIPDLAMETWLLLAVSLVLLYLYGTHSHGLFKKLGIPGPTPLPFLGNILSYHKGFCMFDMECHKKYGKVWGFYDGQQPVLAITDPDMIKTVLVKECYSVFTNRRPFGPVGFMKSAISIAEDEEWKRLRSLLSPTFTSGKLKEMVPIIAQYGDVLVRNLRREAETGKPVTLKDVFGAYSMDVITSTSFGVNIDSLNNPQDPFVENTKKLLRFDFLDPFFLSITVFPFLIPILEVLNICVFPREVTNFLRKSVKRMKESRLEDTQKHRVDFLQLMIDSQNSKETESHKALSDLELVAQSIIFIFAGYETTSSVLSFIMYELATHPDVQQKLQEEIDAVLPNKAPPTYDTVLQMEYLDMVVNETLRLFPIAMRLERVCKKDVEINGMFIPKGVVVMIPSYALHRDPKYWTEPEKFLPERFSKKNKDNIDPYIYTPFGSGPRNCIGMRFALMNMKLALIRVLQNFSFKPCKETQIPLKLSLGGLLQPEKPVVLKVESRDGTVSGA
# Assay summary: CYP3A4 inhibition (substrate BFC)
# Format: in vitro ADME
# Reported conditions: read-out: Cyp IC50 (μM) 3A4(BFC)

INSERT INTO assay_data (smiles_entry, measured_value) VALUES
  ('CCCS(=O)(=O)Nc1ccc(F)c(C(=O)c2c[nH]c3ncc(-c4ccc5cncnc5c4)cc23)c1F', '> 10 µM'),
  ('CCCS(=O)(=O)Nc1ccc(F)c(C(=O)c2c[nH]c3ncc(-c4ccc5c(cnn5S(C)(=O)=O)c4)cc23)c1F', '> 10 µM'),
  ('CC(=O)N(c1ccc(F)c(C(=O)c2cn(C(C)=O)c3ncc(-c4ccc5c(cnn5C(C)=O)c4)cc23)c1F)S(=O)(=O)c1cc(F)ccc1F', '> 10 µM'),
  ('CC(=O)n1cc(C(=O)c2c(F)ccc(NS(=O)(=O)c3cc(F)ccc3F)c2F)c2cc(-c3ccc4c(cnn4C(C)=O)c3)cnc21', '> 10 µM');

INPUT: Find the measured IC50: item `CCCS(=O)(=O)Nc1ccc(F)c(C(=O)c2c[nH]c3ncc(-c4csc(-n5ccnc5C)n4)cc23)c1F` , target or system CYP3A4(BFC) (Homo sapiens, UniProt P08684).
OUTPUT: > 10 µM

INPUT: Also check `CCCS(=O)(=O)Nc1ccc(F)c(C(=O)c2c[nH]c3ncc(-c4cnn(C5CCN(C(=O)OC(C)(C)C)CC5)c4)cc23)c1F`
OUTPUT: 5 to 10 µM

INPUT: Also check `O=C(c1c(F)ccc(NS(=O)(=O)c2ccc(C(F)(F)F)cc2)c1F)c1c[nH]c2ncc(-c3cnn(C4CCNCC4)c3)cc12`
OUTPUT: 5 to 10 µM

###

# Target: c-Raf-1 (Homo sapiens, UniProt P04049)
# Sequence (P04049 whole entry Y340D/Y341D, form open): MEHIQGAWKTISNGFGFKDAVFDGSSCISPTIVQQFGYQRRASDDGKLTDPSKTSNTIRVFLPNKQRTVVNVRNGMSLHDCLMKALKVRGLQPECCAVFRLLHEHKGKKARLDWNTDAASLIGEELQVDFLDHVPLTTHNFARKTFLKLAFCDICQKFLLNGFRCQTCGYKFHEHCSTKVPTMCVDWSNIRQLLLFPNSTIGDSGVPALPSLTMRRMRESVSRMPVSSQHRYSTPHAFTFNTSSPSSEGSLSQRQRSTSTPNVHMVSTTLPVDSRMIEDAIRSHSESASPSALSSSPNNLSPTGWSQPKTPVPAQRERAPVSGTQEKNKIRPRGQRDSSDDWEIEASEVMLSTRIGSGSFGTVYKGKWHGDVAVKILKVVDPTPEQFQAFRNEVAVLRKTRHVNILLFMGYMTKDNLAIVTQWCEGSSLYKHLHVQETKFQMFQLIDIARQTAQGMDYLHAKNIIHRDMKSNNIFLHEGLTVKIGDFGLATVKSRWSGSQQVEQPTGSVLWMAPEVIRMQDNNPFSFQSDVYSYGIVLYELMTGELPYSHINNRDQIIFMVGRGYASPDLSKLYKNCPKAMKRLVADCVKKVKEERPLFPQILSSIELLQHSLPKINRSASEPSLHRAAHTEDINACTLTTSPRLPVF
# Assay summary: c-Raf-1 kinase activity assay (AlphaScreen, biotin-MEK1 substrate)
# Reported conditions: 100 μM ATP, 100 nM biotin-MEK1, 45 minutes at room temperature; read-out: Biochemical activity (IC50 μM) c-Raf-1
Reported IC50 values are given for each entry in this list.

INSERT INTO assay_data (molecule, assay_readout, measured_value) VALUES
  ('CCCS(=O)(=O)Nc1ccc(F)c(C(=O)c2c[nH]c3ncc(-c4cnn(C5CCNCC5)c4)cc23)c1F', 'IC50', '< 0.1 µM'),
  ('CCCS(=O)(=O)Nc1ccc(F)c(C(=O)c2c[nH]c3ncc(NC(=O)C4C=C(C)ON4)cc23)c1F (stereo not shown)', 'IC50', '~0.1 µM'),
  ('CCCS(=O)(=O)Nc1ccc(F)c(C(=O)c2c[nH]c3ncc(-c4ccc5c(cnn5C(C)=O)c4)cc23)c1F', 'IC50', '~0.1 µM');

INPUT: Find the measured IC50: item `CCCS(=O)(=O)Nc1ccc(F)c(C(=O)c2c[nH]c3ncc(-c4ccc(-c5cc[nH]n5)s4)cc23)c1F` , target or system c-Raf-1 (Homo sapiens, UniProt P04049).
OUTPUT: < 0.1 µM

INPUT: Also check `CCCS(=O)(=O)Nc1ccc(F)c(C(=O)c2c[nH]c3ncc(-c4ccc5ncsc5c4)cc23)c1F`
OUTPUT: < 0.1 µM

INPUT: Also check `CCCS(=O)(=O)Nc1ccc(F)c(C(=O)c2c[nH]c3ncc(-c4cccc5nccn45)cc23)c1F`
OUTPUT: < 0.1 µM

INPUT: Also check `CCCS(=O)(=O)Nc1ccc(F)c(C(=O)c2c[nH]c3ncc(-c4cnn(-c5ncccn5)c4)cc23)c1F`
OUTPUT: < 0.1 µM
